# Test system: Vero E6 infected with SARS-CoV-2
# ASSAY REMARKS: inhibition of SARS-CoV-2 cytopathic effect; higher = more antiviral protection, active = above 15
# CONDITIONS: 100 nM; 48 h
# inhibition of SARS-CoV-2 cytopathic effect per record follows
Answer in %, number only, no unit symbol.

MOLECULE	TGT	VALUE
CC1CCN(CCCC(=O)c2ccc(F)cc2)CC1 [melperone]	Vero E6 infected with SARS-CoV-2	-1.43
CCOCCn1c(C2CCN(CCc3ccc(C(C)(C)C(=O)O)cc3)CC2)nc2ccccc21 [bilastine]	Vero E6 infected with SARS-CoV-2	-1.39
CCOC(=O)[C@@H](N)Cc1ccc(O)c(O)c1 [etilevodopa]	Vero E6 infected with SARS-CoV-2	2.32
CC(C)(Cc1c[nH]c2ccc(Cl)cc12)NCCOc1ccccc1OCC1CC1	Vero E6 infected with SARS-CoV-2	0.78
CC(C)Nc1nc2cc(Cl)c(Cl)cc2n1[C@H]1O[C@@H](CO)[C@H](O)[C@@H]1O [maribavir]	Vero E6 infected with SARS-CoV-2	0.22

Memo: `CS(=O)(=O)c1ccc(-c2cnc(N)c(C(=O)Nc3ccccc3)n2)cc1` , reported inhibition of SARS-CoV-2 cytopathic effect: 1.58

Memo: `Cc1nnc(C[C@@H]2C=C(c3ccc(Cl)cc3)c3ccccc3-n3c(C)nnc32)o1` , reported inhibition of SARS-CoV-2 cytopathic effect: 2.65

* * *

# inhibition of SARS-CoV-2 cytopathic effect per record follows
# Test system: Vero E6 infected with SARS-CoV-2
# ASSAY REMARKS: inhibition of SARS-CoV-2 cytopathic effect; higher = more antiviral protection, active = above 15
# CONDITIONS: 100 nM; 48 h
Answer in %, number only, no unit symbol.

Below: 10 molecules and their reported inhibition of SARS-CoV-2 cytopathic effect.
MOLECULE	TGT	VALUE
Nc1ncnc2c1ncn2[C@@H]1O[C@H](CO)[C@@H](O)[C@H]1O	Vero E6 infected with SARS-CoV-2	0.67
O=C(O)C[CH2][Ge](=[O])[O][Ge](=[O])[CH2]CC(=O)O	Vero E6 infected with SARS-CoV-2	3.85
OCCNC1CCCc2c1[nH]c1ccc(-c3ccccc3)cc21 (stereo unspecified)	Vero E6 infected with SARS-CoV-2	1.22
CCOC(=S)SSC(=S)OCC	Vero E6 infected with SARS-CoV-2	-1.47
CN(C)CCc1c[nH]c2ccc(Cn3cncn3)cc12	Vero E6 infected with SARS-CoV-2	-1.66
O=C(O)CC/C=C\C[C@@H]1CO[C@H](c2ccccc2Cl)O[C@@H]1c1ccccc1O (racemic)	Vero E6 infected with SARS-CoV-2	-2.37
COC(=O)[C@@H]1CC2=CC(=O)CC[C@]2(C)[C@@]23O[C@@H]2C[C@@]2(C)[C@@H](CC[C@@]24CCC(=O)O4)[C@H]13	Vero E6 infected with SARS-CoV-2	0.3
CCN(CC)C(=O)N1CCN(C)CC1	Vero E6 infected with SARS-CoV-2	-2.46
O=c1cc(N2CCOCC2)oc2c(-c3ccccc3)cccc12	Vero E6 infected with SARS-CoV-2	0.59
COc1cc2cc(c1Cl)N(C)C(=O)C[C@H](OC(=O)C(C)C)[C@]1(C)O[C@@H]1[C@H](C)[C@@H]1C[C@@](O)(NC(=O)O1)[C@H](OC)/C=C/C=C(\C)C2	Vero E6 infected with SARS-CoV-2	-3.14

Memo: `CC(C)=CCC[C@]1(C)C=Cc2c(O)c3c(c(CC=C(C)C)c2O1)O[C@]12C(=C[C@@H]4C[C@H]1C(C)(C)O[C@@]2(C/C=C(/C)C(=O)O)C4=O)C3=O` , reported inhibition of SARS-CoV-2 cytopathic effect: 0.38

Memo: `CC(C)(C(=O)O)c1ccc(C(=O)CCCN2CCC(OC(c3ccccc3)c3ccccc3)CC2)cc1` , reported inhibition of SARS-CoV-2 cytopathic effect: -0.91

Memo: `N#CC(=C(/N)Sc1ccccc1N)/C(C#N)=C(/N)Sc1ccccc1N` , reported inhibition of SARS-CoV-2 cytopathic effect: 2.1

Memo: `COc1ccccc1C(=O)Nc1cccc(NC(=O)c2cccc(C)c2)c1` , reported inhibition of SARS-CoV-2 cytopathic effect: 2.82

Memo: `OCCCNc1ccccc1` , reported inhibition of SARS-CoV-2 cytopathic effect: -0.59

Memo: `COc1cc(C(C)=O)ccc1O` , reported inhibition of SARS-CoV-2 cytopathic effect: -2.23

Memo: `C[C@@H](Oc1ccc(Cl)cc1)c1ccnc2ncnn12` , reported inhibition of SARS-CoV-2 cytopathic effect: -0.48

Memo: `OB1OCc2cc(F)ccc21` , reported inhibition of SARS-CoV-2 cytopathic effect: -1.21
